compounds and their reported pest or weed control at 1000 g/ha
system: Amaranthus retroflexus (AMARE); assay: Pre-emergence biological efficacy, glasshouse, 1000 g/ha, evaluated after 13 days (100=total damage to plant; 0=no damage to plant); assay type: in vivo; conditions: Amaranthus retroflexus, 312 h, rate 1,000 g/ha, read-out: Percentage damage caused to weed species, pre-emergence, AMARE

COC(=O)c1nc(-c2ccc(Cl)c(OC)c2F)cc2c1ccn2Cc1ccco1    80%

get_value(item= COC(=O)c1nc(-c2ccc(Cl)c(N(C)C)c2F)nc2[nH]c(C)cc12 , readout=pest or weed control at 1000 g/ha) returns 40%

# compound COC(=O)c1nc(-c2ccc(Cl)c(OC)c2F)nc2c1cc(C)n2Cc1ccco1 ; its pest or weed control at 1000 g/ha = 0%

Item: COC(=O)c1nc(-c2ccc(Cl)c(OC)c2F)nc2c1c(C)cn2C | pest or weed control at 1000 g/ha: 30%
